assayName: pH stability tests
Type: physicochemical
appliedConditions: pH 8.0, 2 days
Method: This example provides the results of pH stability tests that were conducted on certain illustrative non-natural amino acids as an aid for predicting their properties for incorporation into non-natural amino acid polypeptides.

[
  {
    "molecule": "COCCOCNCCO/N=C(\\C)CC(=O)c1ccccc1 [drawing 139]",
    "pH stability": "<1%"
  },
  {
    "molecule": "COCCOC(=O)NCCO/N=C(\\C)CNC(=O)c1ccccc1",
    "pH stability": "30%"
  },
  {
    "molecule": "COCCOC(=O)NCCO/N=C1\\C(=O)Nc2ccccc21",
    "pH stability": "<1%"
  },
  {
    "molecule": "COCCOC(=O)NCCO/N=C(\\C)C(=O)c1ccccc1",
    "pH stability": "<1%"
  },
  {
    "molecule": "COCCOC(=O)NCCO/N=C(\\C)C(=O)Nc1ccccc1 [drawing 138]",
    "pH stability": "<1%"
  },
  {
    "molecule": "COCCOC(=O)NCCO/N=C(\\C)C(=O)Nc1ccccc1 [drawing 134]",
    "pH stability": "<1%"
  },
  {
    "molecule": "COCCOC(=O)NCCO/N=C(\\C)COc1ccccc1",
    "pH stability": "38%"
  },
  {
    "molecule": "COCCOCNCCO/N=C(\\C)CC(=O)c1ccccc1 [drawing 135]",
    "pH stability": "<1%"
  }
]

----------
assayName: pH stability tests
Type: physicochemical
appliedConditions: pH 8.0, 4 days

[
  {
    "compound": "COCCOCNCCO/N=C(\\C)CC(=O)c1ccccc1 [drawing 135]",
    "pH stability": "<1%"
  },
  {
    "compound": "COCCOC(=O)NCCO/N=C(\\C)C(=O)c1ccccc1",
    "pH stability": "<1%"
  },
  {
    "compound": "COCCOCNCCO/N=C(\\C)CC(=O)c1ccccc1 [drawing 139]",
    "pH stability": "<1%"
  },
  {
    "compound": "COCCOC(=O)NCCO/N=C(\\C)CNC(=O)c1ccccc1",
    "pH stability": "30%"
  },
  {
    "compound": "COCCOC(=O)NCCO/N=C(\\C)C(=O)Nc1ccccc1 [drawing 138]",
    "pH stability": "<1%"
  },
  {
    "compound": "COCCOC(=O)NCCO/N=C1\\C(=O)Nc2ccccc21",
    "pH stability": "<1%"
  },
  {
    "compound": "COCCOC(=O)NCCO/N=C(\\C)C(=O)Nc1ccccc1 [drawing 134]",
    "pH stability": "<1%"
  },
  {
    "compound": "COCCOC(=O)NCCO/N=C(\\C)COc1ccccc1",
    "pH stability": "45%"
  }
]

----------
The entries below come with measured pH stability values attached.
assayName: pH stability tests
Type: physicochemical
appliedConditions: pH 8.0, 1 hour

[
  {
    "compound": "COCCOC(=O)NCCO/N=C(\\C)CNC(=O)c1ccccc1",
    "pH stability": "9%"
  },
  {
    "compound": "COCCOC(=O)NCCO/N=C1\\C(=O)Nc2ccccc21",
    "pH stability": "<1%"
  },
  {
    "compound": "COCCOCNCCO/N=C(\\C)CC(=O)c1ccccc1 [drawing 139]",
    "pH stability": "8.0%"
  },
  {
    "compound": "COCCOC(=O)NCCO/N=C(\\C)C(=O)Nc1ccccc1 [drawing 134]",
    "pH stability": "<1%"
  },
  {
    "compound": "COCCOC(=O)NCCO/N=C(\\C)C(=O)c1ccccc1",
    "pH stability": "<1%"
  },
  {
    "compound": "COCCOCNCCO/N=C(\\C)CC(=O)c1ccccc1 [drawing 135]",
    "pH stability": "<1%"
  },
  {
    "compound": "COCCOC(=O)NCCO/N=C(\\C)COc1ccccc1",
    "pH stability": "<1%"
  },
  {
    "compound": "COCCOC(=O)NCCO/N=C(\\C)C(=O)Nc1ccccc1 [drawing 138]",
    "pH stability": "8.0%"
  }
]

----------
assayName: pH stability tests
Format: physicochemical
appliedConditions: pH 7.4, 6 days
The entries below come with measured pH stability values attached.
valueType: pH stability

[
  {
    "compound": "COCCOC(=O)NCCO/N=C(\\C)CNC(=O)c1ccccc1",
    "endpointValue": "<1%"
  },
  {
    "compound": "COCCOC(=O)NCCO/N=C(\\C)C(=O)c1ccccc1",
    "endpointValue": "<1%"
  },
  {
    "compound": "COCCOCNCCO/N=C(\\C)CC(=O)c1ccccc1 [drawing 139]",
    "endpointValue": "<1%"
  },
  {
    "compound": "COCCOC(=O)NCCO/N=C(\\C)COc1ccccc1",
    "endpointValue": "15%"
  },
  {
    "compound": "COCCOCNCCO/N=C(\\C)CC(=O)c1ccccc1 [drawing 135]",
    "endpointValue": "4%"
  },
  {
    "compound": "COCCOC(=O)NCCO/N=C1\\C(=O)Nc2ccccc21",
    "endpointValue": "<1%"
  },
  {
    "compound": "COCCOC(=O)NCCO/N=C(\\C)C(=O)Nc1ccccc1 [drawing 138]",
    "endpointValue": "<1%"
  },
  {
    "compound": "COCCOC(=O)NCCO/N=C(\\C)C(=O)Nc1ccccc1 [drawing 134]",
    "endpointValue": "<1%"
  }
]

----------
assayName: pH stability tests
Assay type: physicochemical
appliedConditions: pH 5.0, 7 days

[
  {
    "molecule": "COCCOC(=O)NCCO/N=C(\\C)C(=O)Nc1ccccc1 [drawing 134]",
    "pH stability": "<1%"
  },
  {
    "molecule": "COCCOC(=O)NCCO/N=C1\\C(=O)Nc2ccccc21",
    "pH stability": "<1%"
  },
  {
    "molecule": "COCCOC(=O)NCCO/N=C(\\C)COc1ccccc1",
    "pH stability": "5%"
  },
  {
    "molecule": "COCCOC(=O)NCCO/N=C(\\C)C(=O)Nc1ccccc1 [drawing 138]",
    "pH stability": "<1%"
  },
  {
    "molecule": "COCCOCNCCO/N=C(\\C)CC(=O)c1ccccc1 [drawing 139]",
    "pH stability": "<1%"
  },
  {
    "molecule": "COCCOC(=O)NCCO/N=C(\\C)CNC(=O)c1ccccc1",
    "pH stability": "8%"
  },
  {
    "molecule": "COCCOC(=O)NCCO/N=C(\\C)C(=O)c1ccccc1",
    "pH stability": "<1%"
  },
  {
    "molecule": "COCCOCNCCO/N=C(\\C)CC(=O)c1ccccc1 [drawing 135]",
    "pH stability": "<1%"
  }
]

----------
The entries below come with measured pH stability values attached.
assayName: pH stability tests
Type: physicochemical
appliedConditions: pH 8.0, 3 days
valueType: pH stability

[
  {
    "compound": "COCCOCNCCO/N=C(\\C)CC(=O)c1ccccc1 [drawing 139]",
    "valueType": "pH stability",
    "endpointValue": "<1%"
  },
  {
    "compound": "COCCOC(=O)NCCO/N=C(\\C)C(=O)Nc1ccccc1 [drawing 134]",
    "valueType": "pH stability",
    "endpointValue": "<1%"
  },
  {
    "compound": "COCCOC(=O)NCCO/N=C(\\C)COc1ccccc1",
    "valueType": "pH stability",
    "endpointValue": "40%"
  },
  {
    "compound": "COCCOC(=O)NCCO/N=C(\\C)C(=O)c1ccccc1",
    "valueType": "pH stability",
    "endpointValue": "<1%"
  },
  {
    "compound": "COCCOC(=O)NCCO/N=C1\\C(=O)Nc2ccccc21",
    "valueType": "pH stability",
    "endpointValue": "<1%"
  },
  {
    "compound": "COCCOC(=O)NCCO/N=C(\\C)C(=O)Nc1ccccc1 [drawing 138]",
    "valueType": "pH stability",
    "endpointValue": "<1%"
  },
  {
    "compound": "COCCOCNCCO/N=C(\\C)CC(=O)c1ccccc1 [drawing 135]",
    "valueType": "pH stability",
    "endpointValue": "<1%"
  },
  {
    "compound": "COCCOC(=O)NCCO/N=C(\\C)CNC(=O)c1ccccc1",
    "valueType": "pH stability",
    "endpointValue": "30%"
  }
]

----------
assayName: pH stability tests
Type: physicochemical
appliedConditions: pH 8.0, 10 days
The entries below come with measured pH stability values attached.

[
  {
    "compound": "COCCOC(=O)NCCO/N=C(\\C)C(=O)Nc1ccccc1 [drawing 138]",
    "pH stability": "<1%"
  },
  {
    "compound": "COCCOCNCCO/N=C(\\C)CC(=O)c1ccccc1 [drawing 135]",
    "pH stability": "<1%"
  },
  {
    "compound": "COCCOC(=O)NCCO/N=C(\\C)C(=O)Nc1ccccc1 [drawing 134]",
    "pH stability": "<1%"
  },
  {
    "compound": "COCCOC(=O)NCCO/N=C1\\C(=O)Nc2ccccc21",
    "pH stability": "<1%"
  },
  {
    "compound": "COCCOCNCCO/N=C(\\C)CC(=O)c1ccccc1 [drawing 139]",
    "pH stability": "<1%"
  },
  {
    "compound": "COCCOC(=O)NCCO/N=C(\\C)CNC(=O)c1ccccc1",
    "pH stability": "34%"
  },
  {
    "compound": "COCCOC(=O)NCCO/N=C(\\C)C(=O)c1ccccc1",
    "pH stability": "<1%"
  },
  {
    "compound": "COCCOC(=O)NCCO/N=C(\\C)COc1ccccc1",
    "pH stability": "45%"
  }
]
